# target.or.system: human SSTR4 (Homo sapiens)
# Construct: expressed in transfected cells; host or cells: CHO-K1
# experiment: hSSTR4 cAMP assay (cAMP accumulation, LANCE Ultra cAMP kit, CHO-K1 human SSTR4 Gi cell line)
# Type: cell-based
# condition.info: functional agonism, forskolin 10 μM stimulated CHO-K1 human SSTR4 Gi cells, 30 min at 25° C., at least duplicate, averaged; read-out: hSSTR4 EC50
parameter.measured: EC50 (nM)
Give just the numeric value; nM need not be written.

1) Cc1cccn2c(C(C)(C)NC(=O)[C@@H]3CN(CC4COC4)CCN3)ncc12 [SC-076] = 620

Which EC50 is listed for CN1CCN[C@H](C(=O)NC(C)(C)c2ncc3c(C(F)(F)F)cccn23)C1 [SC-112] ?
490

State the recorded EC50 for this entry: COCCN1CCN[C@H](C(=O)NC(C)(C)c2ncc3c(C)cccn23)C1 [SC-051]
990

For the molecule shown here, Cc1cccn2c(C(C)(C)NC(=O)[C@@H]3CNCCN3CC3CC(F)(F)C3)ncc12 [SC-089] , give the reported EC50.
0.55

Return reported EC50; argument: CN1CCN[C@H](C(=O)NC(C)(C)c2nn(C)c3ccccc23)C1 [SC-099]
21

For Cc1cccn2c(C(C)(C)NC(=O)[C@@H]3CN(Cc4cnco4)CCN3)ncc12 [SC-062] , what is its reported EC50?
220

What value of EC50 has been reported for the following molecule? Cc1cccn2c(C(C)(C)NC(=O)[C@@H]3CN(C(=O)c4ccnn4C)CCN3)ncc12 [SC-082]
5400

Entry Cc1cccn2c(C(C)(C)NC(=O)[C@@H]3CNCCN3Cc3ccc(C(F)(F)F)nc3)ncc12 [SC-030] : reported EC50 = ?
0.48

Sample Cc1cccn2c(C(C)(C)NC(=O)[C@@H]3CNCCN3Cc3cccc(C(F)(F)F)c3)ncc12 [SC-025] — what was its EC50?
0.05

Can you share its EC50? I mean this molecule: Cc1cccc2c(C(C)(C)NC(=O)[C@@H]3CN(C)CCN3)n[nH]c12 [SC-095]
2.9

Which EC50 reading was recorded for the molecule Cc1cccc2c(C(C)(C)NC(=O)[C@@H]3CNCCN3CC3CCOCC3)n[nH]c12 [SC-096] ?
0.46

Quick check: EC50 of Cc1cccn2c(C(C)(C)NC(=O)[C@@H]3CN(C)CCN3C)ncc12 [SC-046] ?
2.8

Need EC50 of CN1CCNC[C@H]1C(=O)NC(C)(C)c1nn(C)c2ccccc12 [SC-100] , thanks.
0.91

Please give the measured EC50 for this molecule: Cn1cc(CN2CCNC[C@H]2C(=O)NC(C)(C)c2ncc3c(Cl)cccn23)cn1 [SC-106]
1.5

Return reported EC50; argument: Cc1cccc2c(C(C)(C)NC(=O)[C@@H]3CNCCN3CC(F)(F)F)n[nH]c12 [SC-098]
0.07

# query: EC50 of entry Cc1cccn2c(C(C)(C)NC(=O)[C@@H]3CNCCN3CC3COC3)ncc12 [SC-042]
1.3

Could you share which EC50 value was measured for Cc1cccn2c(C(C)(C)NC(=O)C3CNCCN3CC3COC3)ncc12 (racemic) [SC-014] ?
3.1

---

# target.or.system: human SSTR4 (Homo sapiens, UniProt P31391)
# Construct: expressed in transfected cells; host or cells: CHO-K1
# Sequence (P31391 whole entry): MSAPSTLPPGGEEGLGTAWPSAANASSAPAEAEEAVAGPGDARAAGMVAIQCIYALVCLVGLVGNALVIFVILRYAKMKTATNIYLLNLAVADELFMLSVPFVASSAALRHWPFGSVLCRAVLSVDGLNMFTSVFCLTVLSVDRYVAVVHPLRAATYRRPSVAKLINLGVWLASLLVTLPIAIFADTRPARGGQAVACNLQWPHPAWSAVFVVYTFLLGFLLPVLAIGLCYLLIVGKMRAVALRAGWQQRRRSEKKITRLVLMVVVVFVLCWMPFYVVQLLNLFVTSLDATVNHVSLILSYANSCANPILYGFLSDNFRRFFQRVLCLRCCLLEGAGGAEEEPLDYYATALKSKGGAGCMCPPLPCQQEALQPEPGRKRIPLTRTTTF
# experiment: hSSTR4 cAMP assay (cAMP accumulation, LANCE Ultra cAMP kit, CHO-K1 human SSTR4 Gi cell line)
# Format: cell-based
# condition.info: functional agonism, forskolin 10 μM stimulated CHO-K1 human SSTR4 Gi cells, 30 min at 25° C., at least duplicate, averaged; read-out: hSSTR4 EC50
parameter.measured: pEC50
Note on units: pEC50 is unitless, being -log10 of a concentration expressed in mol/L.

Solved cases below.
1. Cc1cccn2c(C(C)(C)NC(=O)[C@@H]3CN(C)CCN3)nc(C)c12 [SC-116] = 7.49
2. Cc1cccn2c(C(C)(C)NC(=O)[C@@H]3CNCCN3Cc3ccccc3)ncc12 [SC-085] = 9.96
3. CN1CCNC[C@@H]1C(=O)NC(C)(C)c1ncc2c(Cl)cccn12 [SC-109] = 5.80
4. Cc1cccn2c(C(C)(C)NC(=O)[C@@H]3CNCCN3C)nc(C)c12 [SC-114] = 9.42
5. Cn1nc(C(C)(C)NC(=O)[C@@H]2CNCCN2CC2COC2)c2ccccc21 [SC-123] = 8.15

Which pEC50 value is on record for Cc1cccn2c(C(C)(C)NC(=O)[C@@H]3CN(CC4CCC(F)(F)CC4)CCN3)ncc12 [SC-067] ?
5.62

# query: pEC50 of entry CN1CCNC[C@H]1C(=O)NC(C)(C)c1ncc2c(C(F)(F)F)cccn12 [SC-110]
7.44

Consider the compound shown here: Cc1cccn2c(C(C)(C)NC(=O)C3CNCCN3Cc3ccn(C)n3)ncc12 (racemic) [SC-006] What is its recorded pEC50?
8.43

Query: pEC50; subject: Cc1cccn2c(C(C)(C)NC(=O)[C@@H]3CN(CC4CCOCC4)CCN3)ncc12 [SC-057]
7.70

I would be grateful if you could share the reported pEC50 for Cc1cccn2c(C(C)(C)NC(=O)[C@@H]3CN(C)CCN3Cc3cnn(C)c3)ncc12 [SC-044] .
8.21

---

# log10 EC50 per record follows
# target.or.system: human SSTR4 (Homo sapiens)
# Construct: expressed in transfected cells; host or cells: CHO-K1
# experiment: hSSTR4 cAMP assay (cAMP accumulation, LANCE Ultra cAMP kit, CHO-K1 human SSTR4 Gi cell line)
# Assay type: cell-based
# condition.info: functional agonism, forskolin 10 μM stimulated CHO-K1 human SSTR4 Gi cells, 30 min at 25° C., at least duplicate, averaged; read-out: hSSTR4 EC50
# Procedure: cAMP accumulation assay using a CHO-K1 human SSTR4 Gi cell line. Quantification of intracellular cAMP was performed using the LANCE Ultra cAMP assay kit from Revvity according to the manufacturer's instructions. […] The plate was then incubated for 1 h at 25° C. before reading on a TR-FRET microplate instrument. […]
Field: value | Transform: log10 | Quantity: EC50 | Unit: nM

The cases that follow already have their log10 EC50 on record.
1. Cc1cccn2c(C(C)(C)NC(=O)[C@@H]3CN(CC(F)(F)F)CCN3)ncc12 = 3.52
2. Cn1nc(C(C)(C)NC(=O)[C@@H]2CNCCN2CC2CCOCC2)c2ccccc21 = -0.66
3. Cc1cccn2c(C(C)(C)NC(=O)[C@@H]3CN(Cc4ccn(C)n4)CCN3)ncc12 = 3.20
4. Cc1cccn2c(C(C)(C)NC(=O)[C@@H]3CNCCN3C)ncc12 = -0.36

Any idea what its log10 EC50 is? The molecule is Cc1cccn2c(C(C)(C)NC(=O)[C@@H]3CN(CC(C)C)CCN3)ncc12
2.48

Given Cc1cccn2c(C(C)(C)NC(=O)[C@@H]3CN(Cc4cc(C(F)(F)F)nn4C)CCN3)ncc12 , state its recorded log10 EC50.
4.11

---

# target.or.system: human SSTR4 (Homo sapiens, UniProt P31391)
# Construct: expressed in transfected cells; host or cells: CHO-K1
# experiment: hSSTR4 cAMP assay (cAMP accumulation, LANCE Ultra cAMP kit, CHO-K1 human SSTR4 Gi cell line)
# Type: cell-based
# condition.info: morpholinyl matched molecular pairs (from WO 2016 075240); same cAMP assay conditions; read-out: hSSTR4 EC50 nM (Comparative Example)
parameter.measured: EC50

Which value of EC50 has been reported for CC(C)(NC(=O)[C@@H]1CNCCO1)c1nnc2c(Cl)cccn12 in the records?
> 10000 nM

---

# target.or.system: human SSTR4 (Homo sapiens, UniProt P31391)
# Construct: expressed in transfected cells; host or cells: CHO-K1
# experiment: hSSTR4 cAMP assay (cAMP accumulation, LANCE Ultra cAMP kit, CHO-K1 human SSTR4 Gi cell line)
# Assay type: cell-based
# condition.info: functional agonism, forskolin 10 μM stimulated CHO-K1 human SSTR4 Gi cells, 30 min at 25° C., at least duplicate, averaged; read-out: hSSTR4 EC50
parameter.measured: EC50
Numeric answer plus unit only.

Example results:
1. Cc1cccn2c(C(C)(C)NC(=O)[C@@H]3CN(Cc4cocn4)CCN3)ncc12 [SC-063] = 930 nM
2. Cc1cccn2c(C(C)(C)NC(=O)C3CNCCN3Cc3cncnc3)ncc12 (racemic) [SC-005] = 2.3 nM
3. CCN1CCN[C@H](C(=O)NC(C)(C)c2ncc3c(C)cccn23)C1 [SC-054] = 17 nM

Need EC50, item Cc1cccn2c(C(C)(C)NC(=O)[C@@H]3CNCCN3C3CC(F)(F)C3)ncc12 [SC-021]
3.1 nM
